System: Fibroblast
Assay: Multiplex assay against human fibroblast
Type: toxicity, cell-based
Details: 24 h, 10 µM, compound concentration 10 uM, replicate 2
Measurement Label: Population Fragmented Nuclei (%)
Give the number; % is assumed, so skip it.

C[C@]12CC[C@@H]3c4ccc(O)cc4CC[C@H]3[C@@H]1CC[C@@H]2O [ESTRADIOL]	18

Give the measured Population Fragmented Nuclei (%) of COC(=O)C1=C(C)NC(C)=C(C(=O)OCCCN2CCC(c3ccccc3)(c3ccccc3)CC2)[C@H]1c1cccc([N+](=O)[O-])c1 [NIGULDIPINE] .
40

Query (molecule): CC(C)c1noc(N2CCC(COc3ccc(-c4ccc(S(C)(=O)=O)cc4)nc3)CC2)n1 [GSK-1292263] ; field requested: Population Fragmented Nuclei (%)
7

// returns reported Population Fragmented Nuclei (%) for input C=CC(=O)Nc1cccc(Sc2nc(Nc3ccc(N4CCN(C)CC4)cc3)ncc2Cl)c1
65

The values you see were collected from ChEMBL document CHEMBL4689842.
